Recorded neutralization IC80 for the following binders
- target_or_system: HIV-1 Env of pseudovirus 0260.v5.c36 (HIV-1)
- method_summary: cell-based or functional assay
measured_parameter: neutralization IC80

| binder | observed |
| --- | --- |
| MS-85 (antibody, V domains shown) VH: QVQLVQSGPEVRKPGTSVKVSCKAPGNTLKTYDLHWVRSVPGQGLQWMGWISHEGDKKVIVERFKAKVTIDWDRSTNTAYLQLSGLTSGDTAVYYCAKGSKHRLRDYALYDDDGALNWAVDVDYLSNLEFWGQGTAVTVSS VL: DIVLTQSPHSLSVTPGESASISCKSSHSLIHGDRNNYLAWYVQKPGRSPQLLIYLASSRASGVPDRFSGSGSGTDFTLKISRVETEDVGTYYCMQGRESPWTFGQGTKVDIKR | 0.059 µg/mL |
| MS-91 (antibody, V domains shown) VH: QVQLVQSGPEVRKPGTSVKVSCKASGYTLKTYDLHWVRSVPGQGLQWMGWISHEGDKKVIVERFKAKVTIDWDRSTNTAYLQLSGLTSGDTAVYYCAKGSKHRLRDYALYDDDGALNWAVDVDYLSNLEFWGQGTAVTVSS VL: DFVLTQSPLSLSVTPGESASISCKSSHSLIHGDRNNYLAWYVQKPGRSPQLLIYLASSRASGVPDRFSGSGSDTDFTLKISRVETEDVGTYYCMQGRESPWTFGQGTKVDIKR | 0.171 µg/mL |
| MS-70 (antibody, V domains shown) VH: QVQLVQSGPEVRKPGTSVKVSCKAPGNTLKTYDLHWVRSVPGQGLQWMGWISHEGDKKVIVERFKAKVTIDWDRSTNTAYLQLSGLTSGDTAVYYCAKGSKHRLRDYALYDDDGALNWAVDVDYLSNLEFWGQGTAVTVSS VL: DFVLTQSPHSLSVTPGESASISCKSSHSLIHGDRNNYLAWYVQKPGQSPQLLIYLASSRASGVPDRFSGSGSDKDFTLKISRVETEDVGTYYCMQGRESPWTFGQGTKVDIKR | 0.103 µg/mL |
| MS-84 (antibody, V domains shown) VH: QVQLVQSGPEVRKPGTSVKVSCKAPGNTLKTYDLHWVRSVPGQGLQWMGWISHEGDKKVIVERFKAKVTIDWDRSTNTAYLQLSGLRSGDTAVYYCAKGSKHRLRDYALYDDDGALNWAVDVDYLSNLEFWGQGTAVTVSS VL: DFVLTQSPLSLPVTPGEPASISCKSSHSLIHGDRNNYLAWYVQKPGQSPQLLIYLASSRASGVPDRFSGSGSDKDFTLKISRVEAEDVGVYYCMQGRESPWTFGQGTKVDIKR | 0.062 µg/mL |
| MS-92 (antibody, V domains shown) VH: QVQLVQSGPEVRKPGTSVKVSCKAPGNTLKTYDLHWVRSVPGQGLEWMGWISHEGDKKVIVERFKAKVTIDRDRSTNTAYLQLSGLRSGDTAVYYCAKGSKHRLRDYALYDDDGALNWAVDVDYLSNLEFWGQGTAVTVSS VL: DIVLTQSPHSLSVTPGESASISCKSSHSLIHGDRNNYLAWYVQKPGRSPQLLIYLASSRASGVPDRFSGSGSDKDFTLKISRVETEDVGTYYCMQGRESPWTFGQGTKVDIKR | 0.35 µg/mL |
| MS-81 (antibody, V domains shown) VH: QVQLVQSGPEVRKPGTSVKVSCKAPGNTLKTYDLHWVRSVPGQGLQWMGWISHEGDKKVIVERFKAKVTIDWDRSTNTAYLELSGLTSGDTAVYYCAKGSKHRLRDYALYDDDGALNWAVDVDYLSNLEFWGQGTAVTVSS VL: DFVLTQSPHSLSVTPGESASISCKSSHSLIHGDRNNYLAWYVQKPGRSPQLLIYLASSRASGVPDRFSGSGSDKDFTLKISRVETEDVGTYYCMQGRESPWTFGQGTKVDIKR | 0.075 µg/mL |
| MS-80 (antibody, V domains shown) VH: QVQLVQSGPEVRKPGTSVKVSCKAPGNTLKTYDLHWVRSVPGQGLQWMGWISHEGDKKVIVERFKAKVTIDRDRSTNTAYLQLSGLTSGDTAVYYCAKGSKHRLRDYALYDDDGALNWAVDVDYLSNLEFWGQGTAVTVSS VL: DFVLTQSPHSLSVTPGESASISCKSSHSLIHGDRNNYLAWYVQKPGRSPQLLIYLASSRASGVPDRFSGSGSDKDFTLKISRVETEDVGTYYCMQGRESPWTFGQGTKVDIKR | 0.321 µg/mL |
| MS-74 (antibody, V domains shown) VH: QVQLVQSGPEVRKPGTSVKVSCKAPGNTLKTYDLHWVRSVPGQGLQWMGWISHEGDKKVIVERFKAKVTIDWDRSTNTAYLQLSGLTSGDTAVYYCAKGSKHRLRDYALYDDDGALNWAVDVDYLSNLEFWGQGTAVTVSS VL: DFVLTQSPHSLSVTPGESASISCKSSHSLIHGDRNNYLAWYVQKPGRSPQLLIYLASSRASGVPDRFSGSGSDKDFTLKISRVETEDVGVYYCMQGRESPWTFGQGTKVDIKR | 0.086 µg/mL |
| MS-78 (antibody, V domains shown) VH: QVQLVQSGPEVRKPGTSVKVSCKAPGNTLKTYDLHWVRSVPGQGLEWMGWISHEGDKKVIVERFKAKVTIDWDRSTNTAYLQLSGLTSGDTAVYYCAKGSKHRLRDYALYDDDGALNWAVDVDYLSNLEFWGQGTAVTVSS VL: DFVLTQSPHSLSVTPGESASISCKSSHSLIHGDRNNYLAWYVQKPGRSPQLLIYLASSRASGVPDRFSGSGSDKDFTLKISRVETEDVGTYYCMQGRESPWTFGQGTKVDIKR | 0.095 µg/mL |

All values here come from patent US20220025021A1.
